Listing: koff of selected binders
# assay_target: T1, human alpha CGRP (SEQ ID NO: 80) (human, not fully specified)
# T1 construct: also called human αCGRP; hαCGRP
# T1 peptide: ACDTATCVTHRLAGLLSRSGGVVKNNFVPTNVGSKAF
# assay_info: SPR, 37 C, mutein captured, CGRP analyte
# Text: The Biotin CAPture Kit (GE Healthcare) was used to immobilize biotinylated lipocalin muteins to a chip surface. Muteins were biotinylated using standard NHS chemistry. […] The data were double-referenced by subtraction of the corresponding signals measured for the control channel (loaded with Biotin CAPture reagent only) and by subtraction of buffer injections from the binding responses. […]

binder	koff / s⁻¹
lipocalin mutein SEQ ID NO: 12 (designed binder, biotinylated by NHS chemistry for capture in SPR) QDSTSDLIPAPPLSKVPLQQNFQDNQFHGKWYVVGWAGNTLLREDKDPPKMQATIYELKEDRSYNVTWVYFSEKKCNYHIETSVPGSQPGEFTLGTIQSHPGETPILVRVVSTNYNQHAMVFFKGMGQNREIFEITLYGRTKELTSELKENFIRFSKSLGLPENHIVFPVPIDQCIDGSAWSHPQFEK	0.000162
lipocalin mutein SEQ ID NO: 20 (designed binder, biotinylated by NHS chemistry for capture in SPR) QDSTSDLIPAPPLSKVPLQQNFQDNQFHGKWYVVGRAGNDTLRKDKDPEKMEATIYELKEDKSYNVTDVGFVQKKCMYVIHTFVPGSQPGEFTLGNIKSYPGVTSALVRVVSTNYNQHAMVFVKLVKQNRELFEITLYGRTKELTSELKENFIRFSKSLGLPENHIVFPVPIDQCIDGSAWSHPQFEK	1.75e-05

# credit: patent US20190338002A1
